test system: MOLT-4 leukemia; assay: NCI-60 one-dose screen, 48 h (100 = growth as untreated, 0 = no growth, -100 = all killed); details: 10 µM unless noted
About 83,000 compounds went through this panel and 20% of them were active in at least one assay; those are over-represented in the sample as a whole.
Readout kind: growth (%)
# number only, unit % dropped from output

Quick check: growth on MOLT-4 leukemia, item O=c1c(N=Nc2nccs2)c(-c2ccccc2)[nH]n1-c1nc(-c2ccccc2)cs1 ?
30.3

Quick check: growth on MOLT-4 leukemia, item COc1ccc(-c2nc(SCC(C)C)nc(Nc3ccc(C(=O)O)cc3)c2C#N)cc1 ?
82.7

Quick check: growth on MOLT-4 leukemia, item COC(=O)/C=C/c1cc(O)c2oc(-c3ccc(O)c(O)c3)c(C(=O)OC)c2c1 ?
19.2

Quick check: growth on MOLT-4 leukemia, item CCS(=O)(=O)OCCO[C@H]1Cc2cc3ccc(=O)oc3cc2OC1(C)C ?
107

Quick check: growth on MOLT-4 leukemia, item COc1cc2oc(-c3ccc(NC(=O)c4ccccc4)cc3)cc(=O)c2c(OC)c1OC ?
92.2

Quick check: growth on MOLT-4 leukemia, item N#Cc1c2cccnc2c2nnc3cc(Cl)c(Cl)cc3n12 ?
7.72

Quick check: growth on MOLT-4 leukemia, item COC(=O)/C=C1/CCCCC1(C)C(=O)OC (configuration not stated) ?
99.6

Quick check: growth on MOLT-4 leukemia, item O=C(Oc1ccccc1)c1ccccc1Cl ?
110

Quick check: growth on MOLT-4 leukemia, item CCOc1ccc2nc3ccc(Cl)cc3nc2c1 ?
50.8

Quick check: growth on MOLT-4 leukemia, item N#CCCCCCCCCCCC#N ?
105

* * *

system: CCRF-CEM leukemia; experiment: NCI-60 one-dose screen, 48 h; details: 10 µM
Compounds without any hit were thinned out: in the full panel of roughly 83,000, 20% have a hit. Active and inactive are the calls of the source. How the source made its calls: active means growth percent below 10; inactive means the rest.
// classify into 1 for active, -1 for inactive

Example entries and their recorded answers appear below.
1) Nc1cc(N)c2nc(-c3ccccc3)c(NCCc3ccc(Cl)c(Cl)c3)nc2c1 :: 1
2) CCn1cc(C(=O)O)c(=O)c2cc(F)c(N3CCN(S(=O)(=O)c4ccc(Cl)cc4)CC3)cc21 :: 1
3) Cn1cnc2nc[nH]c2c1=S :: -1

Test call for this compound, please: c1ccc(Nc2ccccn2)cc1
-1

* * *

system: SF-295 CNS; assay: NCI-60 one-dose screen, 48 h (100 = growth as untreated, 0 = no growth, -100 = all killed); conditions: 10 µM unless noted
About 83,000 compounds went through this panel and 20% of them were active in at least one assay; those are over-represented in the sample as a whole.
Readout kind: growth (%)
# number only, unit % dropped from output

// below: answered molecules
1) CN1CCN(Cc2ccc(NC(=O)c3ccc(C#Cc4c(N)ncc5ccc(F)cc45)cc3)cc2C(F)(F)F)CC1 :: -56.7
2) NC(=O)c1c(Nc2ccccc2)nn2cc(-c3nc4ccccc4s3)c(N)nc12 :: 98.7
3) CCCCCCCCCC[N+](C)(C)N :: 98.4
4) CCC(C)CC(N)O (stereo unspecified) :: 99.4

Name the reported growth value associated with the molecule COc1ccc(C2CC(=O)c3c(O)cc(OC4OC(COC5OC(C)C(O)C(O)C5O)C(O)C(O)C4O)cc3O2)cc1O (stereo unspecified)
87.8

Name the reported growth value associated with the molecule CCOC(=O)CNS(=O)(=O)CC(=O)c1ccccc1
118

Name the reported growth value associated with the molecule Cc1ccc(NCc2cn(-c3ccc(C(=O)O)cc3)nc2-c2ccc(C(=O)O)cc2)cc1
103

Name the reported growth value associated with the molecule CC[C@H](Nc1ncnc2nc[nH]c12)c1nc2cccc(NCc3ccc(C(=O)NO)o3)c2c(=O)n1-c1ccccc1
102
